- targetOrSystem: T1, tomato ethylene receptor protein LeETR1 (tomato, UniProt Q41342 1-754, Alexa Fluor 488 succinimidyl-ester label (MST with LeEIN2, FRET assay); Alexa Fluor 488-Maleimide label (MST with NOP-1); non-labeled in the reverse MST titration)
- T1 construct: ethylene receptor ETR1 of tomato (LeETR1); Membrane protein kept in 0.015% Fos-Choline-16 for MST; also called tomato ETR1; tomato receptor
- T1 sequence (looked up): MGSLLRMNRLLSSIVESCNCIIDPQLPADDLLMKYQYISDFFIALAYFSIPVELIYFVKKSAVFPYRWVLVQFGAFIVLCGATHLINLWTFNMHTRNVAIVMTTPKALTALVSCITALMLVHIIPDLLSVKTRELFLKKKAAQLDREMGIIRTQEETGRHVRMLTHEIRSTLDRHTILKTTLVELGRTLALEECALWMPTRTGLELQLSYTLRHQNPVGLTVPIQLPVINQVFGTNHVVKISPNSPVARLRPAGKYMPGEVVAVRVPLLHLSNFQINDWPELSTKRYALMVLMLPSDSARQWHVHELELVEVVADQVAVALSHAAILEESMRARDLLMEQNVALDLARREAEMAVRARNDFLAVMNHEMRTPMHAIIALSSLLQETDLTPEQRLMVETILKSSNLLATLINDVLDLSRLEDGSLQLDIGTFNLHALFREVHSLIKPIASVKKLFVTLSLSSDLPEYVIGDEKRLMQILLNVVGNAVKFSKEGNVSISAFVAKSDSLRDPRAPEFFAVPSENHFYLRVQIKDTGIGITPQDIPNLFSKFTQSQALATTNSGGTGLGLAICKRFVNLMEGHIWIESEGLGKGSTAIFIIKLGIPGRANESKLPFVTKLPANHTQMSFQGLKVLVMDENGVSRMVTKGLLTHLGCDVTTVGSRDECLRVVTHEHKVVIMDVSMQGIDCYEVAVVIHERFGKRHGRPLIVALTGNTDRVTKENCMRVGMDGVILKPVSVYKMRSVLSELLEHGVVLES
- assayName: MST; 50 nM LeETR1 labeled with Alexa Fluor 488-Maleimide titrated with NOP-1 (3.8 nM to 31 μM); 50 mM Tris-HCl pH 8.0, 300 mM NaCl, 0.015% Fos-Choline-16; 80% MST power; 1:1 model
- experimentalContext: both partners purified
assayMetric: Kd (nM)
Please respond with the number in nM and leave the unit unwritten.

Qu. Read the entry H-LKRYKRRL-NH2 (the motif is fully conserved in tomato EIN2; also called NLS-based peptide; source: synthetic peptide (Molecular Proteomics Laboratory of the BMFZ Düsseldorf, >90% purity)) [NOP-1 (LKRYKRRL-NH2)] and write its reported Kd.
Ans. 156
